What IC50 was measured for each of the following?
target: His-tagged cytoplasmic domain of EGFR (Homo sapiens, UniProt P00533); construct: containing the EGFR cDNA encoding amino acids 645 - 1186 preceded by Met-Ala-(His)6; made in house; host or cells: Sf9 cells, recombinant baculovirus vHcEGFR52; test: Inhibition of Epidermal Growth Factor Receptor Kinase (EGF-R) using recombinant enzyme; format: biochemical; details: recombinant enzyme; RR-SRC peptide; average of the number of tests; read-out: IC50;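 also: radiometric kinase assay measuring radiolabeled phosphate transfer from ATP onto the peptide tyrosine by scintillation counting, control is reaction without compound, background subtracted, IC50 from dose-response curve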
Sequence (P00533 669-1210): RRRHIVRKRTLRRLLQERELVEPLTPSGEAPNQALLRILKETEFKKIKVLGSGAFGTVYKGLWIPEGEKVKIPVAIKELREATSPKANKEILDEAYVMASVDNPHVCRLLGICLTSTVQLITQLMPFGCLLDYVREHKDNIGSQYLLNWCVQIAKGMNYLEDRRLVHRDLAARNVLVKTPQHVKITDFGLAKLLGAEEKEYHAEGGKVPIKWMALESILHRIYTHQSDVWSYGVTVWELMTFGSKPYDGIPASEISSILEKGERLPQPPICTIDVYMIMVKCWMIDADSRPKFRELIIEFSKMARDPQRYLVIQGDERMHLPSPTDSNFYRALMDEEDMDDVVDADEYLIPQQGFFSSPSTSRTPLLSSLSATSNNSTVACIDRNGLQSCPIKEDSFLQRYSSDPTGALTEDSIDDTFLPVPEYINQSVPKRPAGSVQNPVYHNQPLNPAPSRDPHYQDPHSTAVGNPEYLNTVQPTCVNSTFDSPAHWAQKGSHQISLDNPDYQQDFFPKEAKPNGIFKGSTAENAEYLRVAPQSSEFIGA
Give bare numbers, in nM.

Check out these entries, answers already filled in.
- sample_smiles: "COc1cc2ncc(C#N)c(Nc3cccc(Br)c3)c2cc1NC(=O)C=CCCl"
  IC50, nM: 40
- sample_smiles: "N#Cc1cnc2ccc(N)cc2c1Nc1cccc(I)c1"
  IC50, nM: 100
- sample_smiles: "COc1cc2ncc(C#N)c(Nc3cccc(CS)c3)c2cc1OC"
  IC50, nM: 10
- sample_smiles: "C=CC(=O)Nc1ccc2ncc(C#N)c(Nc3ccc(F)c(F)c3)c2c1"
  IC50, nM: 150
- sample_smiles: "CSc1cccc(Nc2c(C#N)cnc3ccc(N)cc23)c1"
  IC50, nM: 100
- sample_smiles: "CN(C)CC#CC(=O)Nc1ccc2ncc(C#N)c(Nc3cccc(Br)c3)c2c1"
  IC50, nM: 0.45
- sample_smiles: "C=C(C)C(=O)Nc1ccc2ncc(C#N)c(Nc3cccc(Br)c3)c2c1"
  IC50, nM: 7
- sample_smiles: "C=CC(=O)Nc1ccc2ncc(C#N)c(Nc3cccc(Cl)c3)c2c1"
  IC50, nM: 10

For the 6 compounds below, give their IC50 values.
1. N#Cc1cnc2ccc(NC(=O)/C=C\Cl)cc2c1Nc1cccc(Br)c1
2. CC#CC(=O)Nc1ccc2ncc(C#N)c(Nc3ccc(Sc4ccccc4)c(Cl)c3)c2c1
3. COc1cc2ncc(C#N)c(Nc3ccc(F)c(Br)c3)c2cc1NC(=O)C=CCN1CCOCC1
4. COc1cc2ncc(C#N)c(Nc3cccc(Br)c3)c2cc1NC(=O)C#CCN(C)C
5. COc1cc2c(Nc3ccc(O)cc3C)c(C#N)cnc2cc1OCCCN1CCOCC1
6. N#Cc1cnc2ccc(NCCCN3CCCC3)cc2c1Nc1cccc(Br)c1

10
45
300
10
50
100
